Just for reference, patent US20140135270A1 is where these values come from.

# IC50 annotations
# Measurement Target: His-BIR3 (241-356, XIAP) (Homo sapiens, UniProt P98170)
# Construct: additions of His-BIR3 (241-356, XIAP), fluorescein labeled SMAC peptide
# Sequence (P98170 241-356): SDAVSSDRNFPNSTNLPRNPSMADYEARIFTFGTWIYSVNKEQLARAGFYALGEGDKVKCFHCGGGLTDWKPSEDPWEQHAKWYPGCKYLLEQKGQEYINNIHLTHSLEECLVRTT
# Assay Details: XIAP-BIR3/SMAC Homogeneous Time Resolved Fluorescence (HTRF) Assay
# Format: binding
# Recorded Conditions: fluorescein labeled SMAC peptide
Report as a plain number; the unit nM is understood.

The examples below pair each entry with its known result.
CN[C@@H](C)C(=O)N[C@H](C(=O)N[C@H]1C/C=C/CC[C@@H](C(=O)O)NC(=O)[C@H](Cc2ccc3ccccc3c2)NC(=O)[C@@H]2CN(CCNC(=O)CC[C@@H](C(=O)O)NC(=O)[C@H](Cc3ccc4ccccc4c3)NC1=O)CCN2C(=O)[C@@H](NC(=O)[C@H](C)NC)C(C)(C)C)C(C)(C)C : 373
CN[C@@H](C)C(=O)N[C@H](C(=O)N1C[C@@H]2C[C@H]1C(=O)N[C@@H](Cc1ccc3ccccc3c1)C(=O)N[C@H](C(=O)O)Cc1ccc(cc1)OC/C=C/CO[C@H]1C[C@@H](C(=O)N3Cc4ccccc4C[C@H]3C(=O)N[C@H](C(=O)NS(=O)(=O)C3CC3)Cc3ccc(cc3)OCc3cn2nn3)N(C(=O)[C@@H](NC(=O)[C@H](C)NC)C(C)(C)C)C1)C(C)(C)C : 49.7

Query: Requested read-out: IC50. Entry: CN[C@@H](C)C(=O)N[C@H](C(=O)N1C[C@@H]2C[C@H]1C(=O)N[C@@H](Cc1ccc3ccccc3c1)C(=O)N[C@H](C(=O)O)Cc1ccc(cc1)OCc1cn(nn1)[C@H]1C[C@@H](C(=O)N[C@@H](Cc3ccc4ccccc4c3)C(=O)N[C@H](C(=O)NS(=O)(=O)C3CC3)Cc3ccc(cc3)OCCCCO2)N(C(=O)[C@@H](NC(=O)[C@H](C)NC)C(C)(C)C)C1)C(C)(C)C [Example 122]
Response: 12.9

====

In this section, each of the compounds is paired with its reported IC50.
# Measurement Target: His-BIR3 (241-356, XIAP) (Homo sapiens, UniProt P98170)
# Construct: additions of His-BIR3 (241-356, XIAP), fluorescein labeled SMAC peptide
# Assay Details: XIAP-BIR3/SMAC Homogeneous Time Resolved Fluorescence (HTRF) Assay
# Recorded Conditions: fluorescein labeled SMAC peptide
The reply should contain only the number, in nM.

CN[C@@H](C)C(=O)N[C@H](C(=O)N1C[C@@H]2C[C@H]1C(=O)N[C@@H](Cc1ccc3ccccc3c1)C(=O)NC(C(=O)O)Cc1ccc(cc1)OC/C=C/CO[C@H]1C[C@@H](C(=O)N[C@@H](Cc3ccc4ccccc4c3)C(=O)N[C@H](C(=O)O)Cc3ccc(cc3)O2)N(C(=O)[C@@H](NC(=O)[C@H](C)NC)C(C)(C)C)C1)C(C)(C)C (some centres unmarked) : 2.9

Query: Give its IC50 value. Item: `CN[C@@H](C)C(=O)N[C@H](C(=O)N1C[C@@H]2C[C@H]1C(=O)N[C@@H](C)C(=O)N[C@H](C(=O)O)Cc1ccc(cc1)C(=O)N[C@H]1C[C@@H](C(=O)N[C@@H](Cc3ccc4ccccc4c3)C(=O)N[C@H](C(=O)O)Cc3ccc(cc3)OC/C=C/CO2)N(C(=O)[C@@H](NC(=O)[C@H](C)NC)C(C)(C)C)C1)C(C)(C)C`
Response: 111
